System: α-D-glucosidase (Bacillus)
experimental.protocol: Glycosidase assay, α-D-glucosidase (Bacillus)
Assay type: biochemical
condition.description: Table 16; % inhibition; concentration not given
measured.parameter: α-D-glucosidase (Bacillus) (%)
Give just the numeric value; % need not be written.

Reference set (4 entries):
>  <mol>
OC[C@H]1NC[C@H](O)[C@@H](O)[C@@H]1O

>  <assay.system>
α-D-glucosidase (Bacillus)

>  <reading.unit>
%

>  <measurement>
100

$$$$
>  <mol>
O=C(O)CCN1C[C@H](O)[C@@H](O)[C@H](O)[C@H]1CO

>  <assay.system>
α-D-glucosidase (Bacillus)

>  <reading.unit>
%

>  <measurement>
45.0

$$$$
>  <mol>
O=C(O)CN1C[C@H](O)[C@@H](O)[C@H](O)[C@H]1CO

>  <assay.system>
α-D-glucosidase (Bacillus)

>  <reading.unit>
%

>  <measurement>
9.1

$$$$
>  <mol>
O=C(O)CN1C[C@@H](O)[C@H](O)[C@H]1CO

>  <assay.system>
α-D-glucosidase (Bacillus)

>  <reading.unit>
%

>  <measurement>
24.2

$$$$

Query :: Return α-D-glucosidase (Bacillus) measured with α-D-glucosidase (Bacillus) given this compound: `OC[C@H]1NC[C@@H](O)[C@@H]1O`
Result :: 93

Taken from patent US11484561B2.
